Data provenance is paper PMC12028158.

# System: NCI-H460
# ASSAY: NCI60 one-dose screen
# Format: cell-based
# TEST_CONDITIONS: Homo sapiens; NCI-H460, 10 μM, one-dose; read-out: Growth percent
Measured activity at 10 µM of individual entries

COMPOUND: CC[C@]12C=CCN3CC[C@@]4(c5ccc(OC)cc5N(C)[C@H]4[C@@](O)(C(=O)OC)[C@@H]1OC(=O)CCC[P+](c1ccccc1)(c1ccccc1)c1ccccc1)[C@@H]32 [compound 3, reference compound]
UNIT_OF_MEASURE: %
activity at 10 µM: 6.11

COMPOUND: CC[C@]12C=CCN3CC[C@@]4(c5ccc(OC)cc5N(C)[C@H]4[C@@](O)(C(=O)OC)[C@@H]1OC(=O)CCC[P+](c1cc(C)c(OC)c(C)c1)(c1cc(C)c(OC)c(C)c1)c1cc(C)c(OC)c(C)c1)[C@@H]32 [9e]
UNIT_OF_MEASURE: %
activity at 10 µM: -89.5

COMPOUND: CCC12C=CCN3CCC4(c5ccc(OC)cc5N(C)C4C(O)(C(=O)OC)C1OC(=O)c1ccc(C[P+](c4ccccc4)(c4ccccc4)c4ccccc4)cc1)C32 (centres unmarked) [compound 12]
UNIT_OF_MEASURE: %
activity at 10 µM: -62.8

COMPOUND: CC[C@]12C=CCN3CC[C@@]4(c5ccc(OC)cc5N(C)[C@H]4[C@@](O)(C(=O)OC)[C@@H]1OC(=O)CCC[P+](c1ccc(OC)cc1)(c1ccc(OC)cc1)c1ccc(OC)cc1)[C@@H]32 [9b]
UNIT_OF_MEASURE: %
activity at 10 µM: -85.2

COMPOUND: CC[C@]12C=CCN3CC[C@@]4(c5ccc(OC)cc5N(C)[C@H]4[C@@](O)(C(=O)OC)[C@@H]1OC(=O)CCCC[P+](c1ccc(F)cc1)(c1ccc(F)cc1)c1ccc(F)cc1)[C@@H]32 [10c]
UNIT_OF_MEASURE: %
activity at 10 µM: 20.3
